melting point overview
OBSERVABLE: melting point

{"COMPOUND": "CCOC(=O)C1CNc2c(OC)cc(Cc3cnc(N)nc3N)c(OC)c2C1 (stereo not given)", "OBSERVABLE": "melting point", "MEASURED VALUE": "186 to 188 °C"}
{"COMPOUND": "CC1(c2ccc(F)cc2)Cc2cc(OCC(=O)O)c(Cl)c(Cl)c2C1=O (stereo not given)", "OBSERVABLE": "melting point", "MEASURED VALUE": "150 to 156 °C"}
{"COMPOUND": "Cc1ccc2c(c1)C=Cc1cc(C)ccc1C2c1cn(-c2cc(NCC(=O)Nc3nc(CC(=O)O)cs3)nc(N(C)C)n2)c(=O)[nH]c1=O", "OBSERVABLE": "melting point", "MEASURED VALUE": "220 °C"}
{"COMPOUND": "CC1C(=O)N(c2ccccc2)N=C1N (stereo not given)", "OBSERVABLE": "melting point", "MEASURED VALUE": "147 °C"}
{"COMPOUND": "CCn1c(=O)oc(=O)c2ccccc21", "OBSERVABLE": "melting point", "MEASURED VALUE": "110 to 112 °C"}
{"COMPOUND": "OCc1nc2n(n1)-c1cccnc1N(c1ccc(Cl)cc1)C2", "OBSERVABLE": "melting point", "MEASURED VALUE": "240 to 245 °C"}
{"COMPOUND": "CCc1nc(NCC(C)O)c2c(n1)c(C)nn2C (stereo not given)", "OBSERVABLE": "melting point", "MEASURED VALUE": "116 to 119 °C"}
{"COMPOUND": "COC(COC(=O)C1=C(C)NC2=C(C(=O)CNC2)C1c1cccc(Cl)c1C)c1ccccc1 (stereo not given)", "OBSERVABLE": "melting point", "MEASURED VALUE": "160 to 163 °C"}
{"COMPOUND": "COc1ccc2[nH]cc(C=C[N+](=O)[O-])c2c1", "OBSERVABLE": "melting point", "MEASURED VALUE": "151 to 152 °C"}
{"COMPOUND": "O=C1O[C@@H](CO)CN1c1ccc(C2=CCSCC2)c(F)c1", "OBSERVABLE": "melting point", "MEASURED VALUE": "119 to 122 °C"}
